- tested.system: UniProtKB Q12852
- protocol.text: DLK TR-FRET Inhibition Assay
- experimental.conditions: N-terminally GST-tagged DLK (catalytic domain amino acid 1-520), MKK4 K131M substrate, 30 μM ATP; read-out: DLK HTRF Ki
pKi: −log10 of the molar value.
test.readout: pKi

1) Nc1ncc(-c2nc(N3CC4CC3C4)c3nc4n(c3n2)CCO[C@@H]4C(F)(F)F)cn1 (single isomer, unassigned)    6.06
2) CC1(C)OCCn2c1nc1c(N3C4CCC3CC4)nc(-c3cnc(N)nc3)nc12    6.47
3) CC1(C)OCCn2c1nc1c(N3CCC(F)(F)C3)nc(-c3cnc(N)c(F)c3)nc12    6.55
4) CC1(C)OCCn2c1nc1c(N3CC(F)C3)nc(-c3cnc(N)nc3)nc12    6.41
5) Cc1c[nH]c2ncc(-c3nc(N4CC5CC4C5)c4nc5n(c4n3)CCOC5(C)C)cc12    8.31
6) Cc1c[nH]c2ncc(-c3nc(N4CC(F)(F)C4)c4nc5n(c4n3)CCOC5(C)C)cc12    7.92
7) C[C@@H]1COC(C)(C)c2nc3c(N4CC5CC4C5)nc(-c4cnc(N)nc4)nc3n21 (single isomer, unassigned)    7.38
8) CC1(C)OCCn2c1nc1c(N3CC4CC3C4)nc(-c3cnc(N)c(C#N)c3)cc12    8.65
9) CC1(C)OCCn2c1nc1c(OC3CC4CC4C3)nc(-c3cnc(N)nc3)nc12 (stereo not shown)    6.26
10) Nc1ncc(-c2nc(N3CC4CC3C4)c3nc4n(c3n2)CCOC42CCC2)cn1    7.28

* * *

- tested.system: DLK (Homo sapiens (Human))
- Sequence (Q12852 1-520): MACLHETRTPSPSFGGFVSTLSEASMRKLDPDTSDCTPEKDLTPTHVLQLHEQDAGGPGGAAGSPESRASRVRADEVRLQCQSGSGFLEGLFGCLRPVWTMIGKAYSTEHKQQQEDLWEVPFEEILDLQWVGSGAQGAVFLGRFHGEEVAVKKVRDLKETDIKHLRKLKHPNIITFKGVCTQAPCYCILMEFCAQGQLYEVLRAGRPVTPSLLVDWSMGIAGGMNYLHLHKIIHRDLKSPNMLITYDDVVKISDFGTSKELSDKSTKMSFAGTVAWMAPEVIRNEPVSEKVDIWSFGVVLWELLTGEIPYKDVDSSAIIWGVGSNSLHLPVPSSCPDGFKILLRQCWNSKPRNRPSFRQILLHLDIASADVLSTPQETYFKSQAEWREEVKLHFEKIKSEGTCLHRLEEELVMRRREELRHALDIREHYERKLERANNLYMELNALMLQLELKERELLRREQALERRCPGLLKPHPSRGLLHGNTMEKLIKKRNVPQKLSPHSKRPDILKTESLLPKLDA
- protocol.text: DLK TR-FRET Inhibition Assay
- experimental.conditions: N-terminally GST-tagged DLK (catalytic domain amino acid 1-520), MKK4 K131M substrate, 30 μM ATP; read-out: DLK HTRF Ki
Entries and their Ki values follow.
test.readout: Ki (nM)

1. CC1(C)OCCn2c1nc1c(N3CC4CC3C4)nc(-c3cnc4[nH]ccc4c3)nc12    57.7
2. CC1(C)OCCn2c1nc1c(C3CC3)nc(-c3cnc(N)c(OC(F)F)c3)cc12    56.9
3. Nc1ncc(-c2nc(C3CC3)c3nc4n(c3n2)CCOC42CCC2)cn1    226
4. CC[C@]1(C)OCCn2c1nc1c(N3CC4CC3C4)nc(-c3cnc(N)nc3)nc12 (single isomer, unassigned)    281
5. CC1(C)OCCn2c1nc1c(N3CC4CC3C4)nc(-c3cnc4ccnn4c3)nc12    280
6. CC1(C)OCCn2c1nc1c(C3CCC3)nc(-c3cnc(N)nc3)nc12    297
7. CC1(C)OCCn2c1nc1c(N3CC4CCC3C4)nc(-c3cnc4ccnn4c3)nc12 (centres unmarked)    663
8. CC(Oc1nc(-c2cnc(N)nc2)nc2c1nc1n2CCOC1(C)C)C1CC1 (centres unmarked)    1200
9. C[C@H]1Cn2c(nc3c(N4CC5CC4C5)nc(-c4cnc(N)nc4)nc32)C(C)(C)O1 (single isomer, unassigned)    149
10. CC1(C(F)(F)F)OCCn2c1nc1c(N3CC4CC3C4)nc(-c3cnc(N)nc3)nc12 (centres unmarked)    225
11. CC1(C)OCCn2c1nc1c(NC3CC3)nc(-c3cnc(N)nc3)nc12    192
12. CC1(C)OCCn2c1nc1c(N3CC(O)C3)nc(-c3cnc4[nH]cnc4c3)nc12    379
13. CC1(C)OCCn2c1nc1c(N3CC(F)(F)C3)nc(-c3cnc(N)c(OCC4CC4)c3)nc12    417
14. CC1(C)OCCn2c1nc1c(NC3CCCC3)nc(-c3cnc(N)nc3)nc12    60.1
15. CC1(C)OCCn2c1nc1c(N3CC(F)C3)nc(-c3cnc4[nH]cc(C(F)(F)F)c4c3)nc12    9.87
16. Nc1ncc(-c2nc(N3CC4CC3C4)c3nc4n(c3n2)CCCOC4)cc1OC(F)F    30.8
17. Cc1c[nH]c2ncc(-c3nc(N4CC(O)C4)c4nc5n(c4n3)CCOC5(C)C)cc12    13.1
18. CC1(C)OCCn2c1nc1c(C3CC3)nc(-c3cnc(N)c(OC(F)F)c3)nc12    34.3
19. CC1(C)OCCn2c1nc1c(N3C[C@@H](F)[C@@H](F)C3)nc(-c3cnc(N)nc3)nc12    297
20. CC1CCN(c2nc(-c3cnc(N)nc3)nc3c2nc2n3CCOC2(C)C)C1 (centres unmarked)    299
21. CC1(C)OCCn2c1nc1c(N3CCC4(COC4)C3)nc(-c3cnc4[nH]cc(C#N)c4c3)nc12    4.97
22. C[C@@H]1OCCn2c1nc1c(N3CC4CC3C4)nc(-c3cnc(N)nc3)nc12 (single isomer, unassigned)    59.7
23. CN(C)c1nc(-c2cnc3[nH]cc(C(F)(F)F)c3c2)nc2c1nc1n2CCCOC1    1.64
24. COCC1CCCN1c1nc(-c2cnc(N)nc2)nc2c1nc1n2CCOC1(C)C (centres unmarked)    392
25. COc1cc(-c2nc(N3CC(F)(F)C3)c3nc4n(c3n2)CCOC4(C)C)cnc1N    860
26. CC1(C)CN(c2nc(-c3cnc(N)nc3)nc3c2nc2n3CCOC2(C)C)C1    424
27. CC1(C)OCCn2c1nc1c(N3CCCC3)nc(-c3cnc(N)nc3)nc12    402
28. CC1(C)OCCn2c1nc1c(N3CC4CC(F)(F)C4C3)nc(-c3cnc(N)nc3)nc12 (centres unmarked)    157
29. CC1(C)OCCn2c1nc1c(N3CC(O)C3)nc(-c3cnc4[nH]cc(C(F)(F)F)c4c3)nc12    6.79

* * *

- tested.system: DLK (Homo sapiens (Human))
- protocol.text: DLK TR-FRET Inhibition Assay
- experimental.conditions: N-terminally GST-tagged DLK (catalytic domain amino acid 1-520), MKK4 K131M substrate, 30 μM ATP; read-out: DLK HTRF Ki
test.readout: Ki (nM)

1. CC1(C)OCCn2c1nc1c(C3CC3)nc(-c3cnc(N)c4nc[nH]c34)nc12    150
2. CC1(C)OCCn2c1nc1c(N3CCC(F)(F)C3)nc(-c3cnc(N)nc3)nc12    97.6
3. CCN(c1nc(-c2cnc(N)nc2)nc2c1nc1n2CCOC1(C)C)C1CCC1    86.7
4. CO[C@@H]1CC2CC1CN2c1nc(-c2cnc(N)nc2)nc2c1nc1n2CCOC1(C)C (single isomer, unassigned)    72.7
